Parameter melting point: see the listing below.
RESULT_TYPE: melting point

| MOLECULE | RESULT_TYPE | MEASURED_VALUE |
| --- | --- | --- |
| CC1CN(c2c(F)cc3c(=O)c(C(=O)O)cn4c3c2CC4C)CC(C)N1C (single isomer, unassigned; (+)) | melting point | 204 to 206 °C |
| Cc1cccc(Cl)c1Nc1ccccc1CC(=O)O | melting point | 124 to 125 °C |
| O=c1cc(-c2nnn[nH]2)occ1-c1ccccc1 | melting point | 237 to 238 °C |
| CC(C)n1nc(OCC(=O)c2ccc(F)cc2)c(-c2ccc(F)cc2)c1-c1ccc(S(C)(=O)=O)cc1 | melting point | 184 to 185 °C |
| Cn1c(CC#N)cc(Cl)c1C(=O)c1ccc(Cl)cc1 | melting point | 139 to 142 °C |
| CCCNC(=O)c1nc(-c2ccccc2)c(-c2ccc(=O)n(CC)n2)s1 | melting point | 106 to 108 °C |
| O=C(O)Cn1cnc2c(NC3CCCCC3)nc(NCc3ccc(C4CCCCC4)cc3)nc21 | melting point | 172 to 179 °C |
| CCc1cc(C(=O)c2ccccc2Cl)c(-n2c(CNC(=O)c3ccc(Cl)c(Cl)c3)nnc2C(F)(F)F)s1 | melting point | 75 to 80 °C |
| CCNc1nc(Nc2ccccc2C)c2ccccc2n1 | melting point | 127 to 129 °C |

---

RESULT_TYPE: melting point

| MOLECULE | MEASURED_VALUE |
| --- | --- |
| CC(C)(C)SCC1Cn2cc(C(=O)NCc3ccc(Cl)cc3)c(=O)c3cc(CN4CCOCC4)cc(c32)O1 (stereo not given) | 198 to 201 °C |
| CC1(C)CCOC1(O)C(Cc1ccc(Cl)cc1)n1cncn1 (stereo not given) | 98 °C |
| O=C1CC[C@@H](C(=O)Nc2ccc(-c3ncc(C(=O)O)c(O)n3)cc2)N1 | > 300 °C |
| Cc1cc(Cl)c2c(c1)C=C(/C=C/C=C/C=C/C(=O)O)CO2 | 248 to 250 °C |
| O=CNC1=NN(c2cccc(F)c2)C(c2ccc(Cl)cc2)C1 (stereo not given) | 128 to 130 °C |
| CCOCc1nc(C(C)(C)O)c(C(=O)OCc2oc(=O)oc2C)n1Cc1ccc(-c2ccccc2-c2nnn[nH]2)cc1 | 166 to 168 °C |
| CCCc1nc2c(N)nc(C)c(C)c2n1CCCCCCS(C)(=O)=O | 157 to 158 °C |
| N#CNc1cc(Cl)ccc1N1CCOCC1 | 305 to 308 °C |
| CCc1n[nH]c2cc(-c3nn(C(C)c4oc5ccccc5c(=O)c4-c4cccc(F)c4)c4ncnc(N)c34)ccc12 (stereo not given) | 270 to 273 °C |
| O=c1cc(C(F)(F)F)cc(-c2ccc(C(F)(F)F)cc2)[nH]1 | 203 to 204 °C |

---

RESULT_TYPE: melting point

| MOLECULE | RESULT_TYPE | MEASURED_VALUE |
| --- | --- | --- |
| COC(=O)NCCC1CN=C(c2cc3cccc(N(C)S(=O)(=O)c4cccs4)c3[nH]2)S1 (stereo not given) | melting point | 201 to 203 °C |
| COc1cc(NC(=O)N2CCOCN2)c(F)cc1Cl | melting point | 145 to 147 °C |
| CNC(=O)CCC12CC(c3ccccc31)c1ccccc12 | melting point | 200 to 201 °C |
| O=C1NCc2cc(Br)sc21 | melting point | 96 to 97 °C |
| N#Cc1cc(/C=C/C(c2cc(Cl)c(Cl)c(Cl)c2)C(F)(F)F)ccc1-n1cnc(N(C(=O)C2CC2)C(=O)C2CC2)n1 (stereo not given) | melting point | 104 to 107 °C |

---

# Lookup of reported melting point keyed by entry

| COMPOUND | melting point |
| --- | --- |
| COC(=O)[C@@H](Cc1ccccc1)NC(=O)Nc1n[nH]c(=S)s1 | 110 °C |
| CCc1c(CC(N)=O)c2cc(OCCCC(N)=O)ccc2n1Cc1ccccc1 | 176 to 179 °C |
| NC(=O)Oc1ccccc1-c1nc2ccc(OCc3c(F)cccc3Cl)cc2s1 | 227 °C |
| Cc1cc2cc(CN3CCCCCC3)cnc2cc1NC(=O)c1ccc(-c2ccc(Cl)cc2)cc1F | 209 °C |
| COCc1c(C(C)C)nc(-c2ccc(F)cc2)c(C=O)c1C(C)C | 77 °C |
| CCCCCS(=O)(=O)NC(=O)/C=C/c1ccc(Oc2ncccn2)cc1Oc1ncc(C(F)(F)F)cc1Cl | 80.5 to 82.5 °C |
| O=C(O)C(O)c1cccs1 (stereo unspecified) | 75 °C |
| C1=C(/C=C/c2ccsc2)CCN(Cc2nc3ccccc3[nH]2)C1 | 216 to 218 °C |
| N#CCCN(N)c1nc2ccccc2o1 | 169 to 170 °C |
| CNC(=O)C1Cc2c(nc(C)n2C)C2=C1C(=O)CC1(Cc3ccccc3C1)N2 (stereo unspecified) | 93 to 94 °C |
| Cn1ccc2cc(NC(=O)CC34CC5CC(CC(C5)C3)C4)ccc21 | 183 to 184 °C |
| COc1cc(OC)cc(S(=O)(=O)n2c(CCCC(=O)O)cc3nc(Cl)ccc32)c1 | 136 to 138 °C |
| CCCc1c(OCCCCCCc2ccc(C(C)(C)C)c(OC)c2OC)ccc(C(=O)OCc2ccccc2)c1O | 106 to 108 °C |
| COC(=O)N1CCc2c(O)noc2C1 | 136 to 138 °C |
| Nc1ccc(S(=O)(=O)Nc2ccc(Cl)c3cc[nH]c23)cn1 | 204 to 206 °C |
| CC12CC(F)C3C4CCC(=O)C=C4C=CC3C1CCC2=O (stereo unspecified) | 198 °C |
| Nc1c(-c2ccc(Oc3ccccc3)cc2)nc2ccccc2c1C(=O)O | 218 to 220 °C |
| O=c1ccc(=O)c2c(=O)c3ccccc3c(=O)c1=2 | 211 to 213 °C |
| Brc1cccc2[nH]cc(Cc3cccnc3)c12 | 173 to 174 °C |
| CCC(Oc1ccc(C(C)(C)CC)cc1C(C)(C)CC)C(=O)Nc1cc(Cl)c2[nH]c(=O)[nH]c2c1O (stereo unspecified) | 201 to 204 °C |
| O=C1c2cc(OCc3ccc4ccccc4n3)ccc2OCC1OCc1ccccc1 (stereo unspecified) | 113 to 115 °C |

---

Below, each entry is listed alongside its reported melting point.
RESULT_TYPE: melting point

| COMPOUND | RESULT_TYPE | MEASURED_VALUE |
| --- | --- | --- |
| COc1cc(CN2CCN(c3cccc(C)c3Cl)CC2)cc(OC)c1OC | melting point | 112 to 113 °C |
| Cc1cc(CN(Cc2ccc(F)cc2)c2cc(-c3ccc(C(F)(F)F)cc3)nn2C)cc(C)c1OC(C)(C)C(=O)O | melting point | > 90 °C |
| CCOC(=O)C1=C(O)c2cc3ccccc3n2CC1 | melting point | 101 to 103 °C |
| CCOc1nc(N)c2ncn(C3CCCCC3)c2n1 | melting point | 134 to 136 °C |
| C=C(CC(=O)Nc1cc(Cl)cc(Cl)c1)C(=O)OCCCCCC | melting point | 60 °C |
| O=C(Nc1cccc(Cc2ccccc2)c1)c1ccn2c1CSC2c1cccnc1 (stereo unspecified) | melting point | 140 °C |
| Cc1c(N2CC(O)C2)c(F)cc2c(=O)c(C(=O)O)cn(-c3nc(N)c(F)cc3F)c12 | melting point | 245 to 247 °C |
| CCc1nc2c(N)nc3cccnc3c2n1CCCCCC(=O)N1CCOCC1 | melting point | 163 to 165 °C |
| CONC(=O)CON1C(=O)c2ccccc2C1=O | melting point | 179 °C |
| CCN(CC)C(=O)COc1nc(-c2ccccc2)c2ccccc2n1 | melting point | 88 °C |
| O=C(CCl)NCCCCOc1cc(CN2CCCCC2)ccn1 | melting point | 59 to 63 °C |
| O=S1(=O)c2sccc2C=C(CO)N1CCO | melting point | 81 to 83 °C |
| C#CCOc1cc(-n2nnn(CCC)c2=O)c(Cl)cc1Cl | melting point | 70 to 72 °C |
| Cc1ccccc1N1CCc2c(N(C)C)nc3c(C)cccc3c21 | melting point | 120 to 121 °C |
| CC(C)C1(C)N=C(c2cc3c(nc2C(=O)O)COC3)NC1=O (stereo unspecified) | melting point | 115 to 118 °C |
| Cc1cc(O)c(S(=O)(=O)CCC(C)C)c(=O)o1 | melting point | 101 to 102 °C |
| Cc1ccc2c(c1)C1CN(CCCC(=O)c3ccc(F)cc3)CCC1N2C (stereo unspecified) | melting point | 140 to 145 °C |
| CCN(CC)C(=O)c1cccc(-c2nc(=O)c3ccccc3s2)n1 | melting point | 194 °C |
| CCOP(=O)(COCCC(CO)On1cnc2c(N)ncnc21)OCC (stereo unspecified) | melting point | 86 to 88 °C |
| CC1(C)CCCN(C(=O)CN2C(=O)C(NC(=O)Nc3cccc(C(=O)OC(C)(C)C)c3)C(=O)N(c3ccccc3F)c3ccccc32)C1 (stereo unspecified) | melting point | 170 °C |
| C=CCOc1cc(NC(=O)C2CCCCC2C(=O)OCC)c(F)cc1Cl (stereo unspecified) | melting point | 52 to 53 °C |
